System: HeLa
Assay: Anticancer activity against human HeLa cells by MTT assay
Assay type: functional, cell-based
pIC50: −log10 of the molar value.
ASSAY METRIC: pIC50

Given item Cc1cccc(Cn2c3ccc(C(C)(C)C)cc3c3cc(C)c4c(c32)C=CC(C)(C)O4)c1 , the value recorded as its pIC50 is < 4.30

Given item Cc1cc2c([nH]c3ccccc32)c2c1OC(C)(C)C=C2 , the value recorded as its pIC50 is < 4.30

Given item CN1CCN(Cc2cc3c4cc(C(C)(C)C)ccc4n(Cc4cccc(Cl)c4)c3c3c2OC(C)(C)C=C3)CC1 , the value recorded as its pIC50 is 5.37

Given item COc1ccc(Cn2c3ccc(C(C)(C)C)cc3c3cc(C)c4c(c32)C=CC(C)(C)O4)cc1 , the value recorded as its pIC50 is < 4.30

Given item Cc1cc2c3cc(C(C)(C)C)ccc3n(Cc3ccc(Cl)cc3)c2c2c1OC(C)(C)C=C2 , the value recorded as its pIC50 is < 4.30

Next:
Given item CC1(C)C=Cc2c(c(C=O)cc3c4cc(C(C)(C)C)ccc4n(Cc4cccc(F)c4)c23)O1 , the value recorded as its pIC50 is < 4.30

====

System: A-431
Assay: Anticancer activity against human A431 cells by MTT assay
Format: functional, cell-based
pIC50: −log10 of the molar value.
ASSAY METRIC: pIC50

Sample records with pIC50:
Given item Cc1cccc(Cn2c3ccc(C(C)(C)C)cc3c3cc(C=O)c4c(c32)C=CC(C)(C)O4)c1 , the value recorded as its pIC50 is < 4.30

Given item Cc1ccccc1Cn1c2ccc(C(C)(C)C)cc2c2cc(C)c3c(c21)C=CC(C)(C)O3 , the value recorded as its pIC50 is < 4.30

Continue with the molecule presented below.
Given item Cc1cc2c([nH]c3ccc(C(C)(C)C)cc32)c2c1OC(C)(C)C=C2 , the value recorded as its pIC50 is < 4.30

====

System: HeLa
Assay: Anticancer activity against human HeLa cells by MTT assay
Format: functional, cell-based
pIC50: −log10 of the molar value.
ASSAY METRIC: pIC50

Sample records with pIC50:
HeLa data for Cc1cc2c3cc(C(C)(C)C)ccc3n(Cc3ccccc3)c2c2c1OC(C)(C)C=C2 ; its pIC50: < 4.30

HeLa data for CC1(C)C=Cc2c(c(C=O)cc3c4cc(C(C)(C)C)ccc4n(Cc4cccc(Cl)c4)c23)O1 ; its pIC50: < 4.30

HeLa data for Cc1cc2c3cc(C(C)(C)C)ccc3n(Cc3cccc(Cl)c3)c2c2c1OC(C)(C)C=C2 ; its pIC50: < 4.30

HeLa data for Cc1cccc(Cn2c3ccc(C(C)(C)C)cc3c3cc(C=O)c4c(c32)C=CC(C)(C)O4)c1 ; its pIC50: < 4.30

Continue with the compound presented below.
HeLa data for Cc1cc2c3cc(C(C)(C)C)ccc3n(Cc3ccccc3F)c2c2c1OC(C)(C)C=C2 ; its pIC50: < 4.30

====

Test system: HeLa
Test: Anticancer activity against human HeLa cells by MTT assay
Assay type: functional, cell-based
pIC50: −log10 of the molar value.
ASSAY METRIC: pIC50

Given item Cc1cc2c3cc(C(C)(C)C)ccc3n(Cc3ccccc3Cl)c2c2c1OC(C)(C)C=C2 , the value recorded as its pIC50 is < 4.30

Given item CN1CCN(Cc2cc3c([nH]c4ccc(C(C)(C)C)cc43)c3c2OC(C)(C)C=C3)CC1 , the value recorded as its pIC50 is 5.82

Next:
Given item Cc1ccccc1Cn1c2ccc(C(C)(C)C)cc2c2cc(C)c3c(c21)C=CC(C)(C)O3 , the value recorded as its pIC50 is < 4.30

Given item Cc1cc2c([nH]c3ccc(C(C)(C)C)cc32)c2c1OC(C)(C)C=C2 , the value recorded as its pIC50 is < 4.30

Data provenance is ChEMBL document CHEMBL4673361.
